Assign TΔS° to each entry below.
Target: T1, IR485 construct of human insulin receptor (human, UniProt P06213 28-512)
T1 construct: The tag was not removed for ITC; Expressed in Lec8 mutant CHO cells; also called insulin mini-receptor IR485; first three domains of IR (L1-CR-L2)
T1 chain: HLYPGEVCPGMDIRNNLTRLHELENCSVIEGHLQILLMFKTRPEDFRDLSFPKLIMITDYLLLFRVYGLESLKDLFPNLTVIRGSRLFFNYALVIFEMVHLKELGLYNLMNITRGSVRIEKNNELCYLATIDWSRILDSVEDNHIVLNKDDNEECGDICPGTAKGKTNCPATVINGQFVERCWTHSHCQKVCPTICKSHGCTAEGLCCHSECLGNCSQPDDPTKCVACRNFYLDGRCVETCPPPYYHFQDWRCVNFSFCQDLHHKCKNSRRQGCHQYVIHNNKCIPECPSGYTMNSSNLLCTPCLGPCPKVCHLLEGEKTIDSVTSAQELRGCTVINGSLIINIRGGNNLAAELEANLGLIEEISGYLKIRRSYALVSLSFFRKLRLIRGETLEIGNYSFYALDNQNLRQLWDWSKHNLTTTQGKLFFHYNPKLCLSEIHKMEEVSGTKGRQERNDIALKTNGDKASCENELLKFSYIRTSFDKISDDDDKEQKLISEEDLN
Assay: ITC, about 25 °C, peptide titrated into IR485
Ends that are not written are not given here. * marks the point of attachment. Biotin = O=C1N[C@H]2[C@H](CS[C@H]2CCCCC(=O)*)N1
Unit kcal/mol implied. Number only.

Give TΔS° for the following binder: Biotin-ESSFRKTFEDYLHNVVFVPRPS (Genscript, >75% purity; also called wt; native peptide) [N-terminally biotinylated IR αCT peptide 698-719, wild type]
-3.35

Give TΔS° for the following binder: Biotin-ESSFYKWFEDYLHNVVFVPRPS [N-terminally biotinylated IR αCT peptide 698-719, R702Y/T704W]
-1.2

Give TΔS° for the following binder: Biotin-ESSFWKTFEDYLHNVVFVPRPS [N-terminally biotinylated IR αCT peptide 698-719, R702W]
-0.717

Give TΔS° for the following binder: Biotin-ESSFRKWFEDYLHNVVFVPRPS [N-terminally biotinylated IR αCT peptide 698-719, T704W]
2.63

Give TΔS° for the following binder: Biotin-ESSFYKTFEDYLHNVVFVPRPS [N-terminally biotinylated IR αCT peptide 698-719, R702Y]
-2.87

Give TΔS° for the following binder: Biotin-ESSFRKYFEDYLHNVVFVPRPS [N-terminally biotinylated IR αCT peptide 698-719, T704Y]
-2.63
